The reported numbers originate from patent US6159733A.

- Method: Photosensitivity of pluripotent stem cells, cobblestone area forming cell (CAFC) assay
- Assay type: cell-based, murine
- Stated conditions: mouse, bone marrow stem cells, 15 nM, 1.5×10^7 cells/mL, 18 J/cm^2; two assays (p=0.69, p=0.78); read-out: relative CAFC frequency on day 28
- Experimental: Animals. C57B1/6 (Ly-5.2) and B6SJ-cd45 ^b pep 3^b /BOY J (Ly-5.1), were obtained from The Jackson Laboratories (Bar Harbor, Me.) and were maintained in the animal facility of the New York Blood Center. […] Photoinactivation. […] After a 20 minute warm up period of the instrument, the distance from the light source to the bottom of the 24-well plate was adjusted to obtain a fluence rate of 26.6 mW/cm^2, as measured with a radiometer (Model IL 1350, International Light, Newburyport, Mass.). […]
Measured parameter: viability at 672 h, 0.015 µM (%)
Give bare numbers, in %.

[in] Consider the molecule CN(C)CCC[Si](C)(C)O[Si]1(O)n2c3c4ccccc4c2N=C2N=C(N=c4c5ccccc5c(n41)=NC1=NC(=N3)c3ccccc31)c1ccccc12 (stereo not shown) [Pc 4] and give its measured viability at 672 h, 0.015 µM.
[out] 91

---

- Method: Photosensitivity of pluripotent stem cells, cobblestone area forming cell (CAFC) assay
- Format: cell-based, murine
- Stated conditions: mouse, bone marrow stem cells, 15 nM, 1.5×10^6 cells/mL, 3 J/cm^2; two values; read-out: relative CAFC day 28 frequency
Measured parameter: viability at 672 h, 0.015 µM (%)
One number for each entry, in %.

[in] Consider the compound CN(C)CCC[Si](C)(C)O[Si]1(O)n2c3c4ccccc4c2N=C2N=C(N=c4c5ccccc5c(n41)=NC1=NC(=N3)c3ccccc31)c1ccccc12 (stereo not shown) and give its measured viability at 672 h, 0.015 µM.
[out] 1.8

---

- Method: Photosensitivity of committed BM progenitors, colony forming assay
- Type: cell-based, murine
- Stated conditions: mouse, bone marrow progenitors; 15 nM, 1.5×10^7 cells/mL, 18 J/cm^2; read-out: surviving fraction (colony forming ability relative to untreated controls)
Measured parameter: viability at 0.015 µM

[in] Consider the compound CN(C)CCC[Si](C)(C)O[Si]1(O)n2c3c4ccccc4c2N=C2N=C(N=c4c5ccccc5c(n41)=NC1=NC(=N3)c3ccccc31)c1ccccc12 (stereo not shown) and give its measured viability at 0.015 µM.
[out] < 0.3%

---

- Method: Photosensitivity of committed BM progenitors, colony forming assay
- Assay type: cell-based, murine
- Stated conditions: mouse, bone marrow cfu-gm; 15 nM Pc 4, murine BM; read-out: losses of CFU-GM on incubation
- Description: Animals. C57B1/6 (Ly-5.2) and B6SJ-cd45 ^b pep 3^b /BOY J (Ly-5.1), were obtained from The Jackson Laboratories (Bar Harbor, Me.) and were maintained in the animal facility of the New York Blood Center. […] Photoinactivation. […] After a 20 minute warm up period of the instrument, the distance from the light source to the bottom of the 24-well plate was adjusted to obtain a fluence rate of 26.6 mW/cm^2, as measured with a radiometer (Model IL 1350, International Light, Newburyport, Mass.). […]
Measured parameter: cytotoxicity at 0.015 µM

[in] Consider the compound CN(C)CCC[Si](C)(C)O[Si]1(O)n2c3c4ccccc4c2N=C2N=C(N=c4c5ccccc5c(n41)=NC1=NC(=N3)c3ccccc31)c1ccccc12 (stereo not shown) and give its measured cytotoxicity at 0.015 µM.
[out] 0 to 15%
